# merged literature set: IC50 with EPX (eosinophil peroxidase) (Homo sapiens, UniProt P11678)
Give just the numeric value; nM need not be written.

Find IC50 (EPX (eosinophil peroxidase) (Homo sapiens, UniProt P11678)) for the entry Nc1cc(Cc2cncc(Cl)c2)c2nn[nH]c2n1 52

Find IC50 (EPX (eosinophil peroxidase) (Homo sapiens, UniProt P11678)) for the entry Cc1cc(C)cc(Cc2cc(N)nc3[nH]nnc23)c1 34

Find IC50 (EPX (eosinophil peroxidase) (Homo sapiens, UniProt P11678)) for the entry Nc1cc(OCc2cccc(OC3CC3)c2)c2nn[nH]c2n1 10

Find IC50 (EPX (eosinophil peroxidase) (Homo sapiens, UniProt P11678)) for the entry Nc1cc(Cc2cnn(-c3ccccc3)c2)c2nn[nH]c2n1 11

Find IC50 (EPX (eosinophil peroxidase) (Homo sapiens, UniProt P11678)) for the entry Nc1cc(Cc2cnn(C3CCC3)c2)c2nn[nH]c2n1 32

Find IC50 (EPX (eosinophil peroxidase) (Homo sapiens, UniProt P11678)) for the entry Nc1cc(Cc2cccc3c2ccn3Cc2cccc(F)c2)c2nn[nH]c2n1 19

Find IC50 (EPX (eosinophil peroxidase) (Homo sapiens, UniProt P11678)) for the entry Nc1cc(Cc2cnn(Cc3ccccc3)c2)c2nn[nH]c2n1 30

Find IC50 (EPX (eosinophil peroxidase) (Homo sapiens, UniProt P11678)) for the entry Nc1cc(OCc2cccc(-c3ncccn3)c2)c2nn[nH]c2n1 40

Find IC50 (EPX (eosinophil peroxidase) (Homo sapiens, UniProt P11678)) for the entry CC(Sc1cc(N)nc2[nH]nnc12)c1ccccc1 (stereo not drawn) 1
